# test.method.notes: NCI Yeast Anticancer Drug Screen. Data for the mec2-1 strain (AID 157)
# assay.conditions: S. cerevisiae mec2-1 strain, at 50.0 µM, stronger effect = higher value
Compounds without any hit were thinned out: in the full panel of roughly 79,000, 15% have a hit.
Note to self: class labels come from recorded growth inhibition, ranges listed here: low bracket: < 10%; middle bracket: ≥ 10% and < 60%; high bracket: ≥ 60%

Record excerpt, results attached:
C[C@H](CCC(=O)NN)[C@H]1CC[C@H]2[C@@H]3CC[C@@H]4C[C@H](O)CC[C@]4(C)[C@H]3CC[C@]12C : middle bracket
O=C(NC(Nc1ccc(F)c(Cl)c1)(C(F)(F)F)C(F)(F)F)C(C(F)(F)F)C(F)(F)F : middle bracket
CN(C)c1nc2sc3c(c2c(=O)o1)CCCC3 : middle bracket
O=C1c2ccccc2-c2nc3ccccc3nc21 : low bracket

[ask] Determine which band this compound sits in: CCOC(=O)C(NC(=O)c1ccccc1)(N1CCN(c2cc3c(cc2F)c(=O)c(C(=O)O)cn3C2CC2)CC1)C(F)(F)F (centres undefined)
[reply] low bracket

[ask] Determine which band this compound sits in: CC1OCC2OC(C)OC(C3C4=C(CC(C)(C)CC4=O)OC4=C3C(=O)CC(C)(C)C4)C2O1 (centres undefined)
[reply] middle bracket

[ask] Determine which band this compound sits in: COc1cc2ccc(/C=C\[N+](=O)[O-])cc2cc1OC
[reply] high bracket

[ask] Determine which band this compound sits in: C=C(CN(C)C)C(=O)c1cc(C)ccc1C
[reply] high bracket

[ask] Determine which band this compound sits in: CCc1ccc(NS(=O)(=O)c2ccccc2)c([N+](=O)[O-])c1
[reply] middle bracket

###

# test.method.notes: NCI Yeast Anticancer Drug Screen. Data for the bub3 strain (AID 167)
# assay.conditions: S. cerevisiae bub3 mutant strain, at 50.0 µM, stronger effect = higher value
Compounds without any hit were thinned out: in the full panel of roughly 79,000, 15% have a hit.
Mark Not satisfied for growth inhibition values under 90%, and Satisfied for everything at or above.

Record excerpt, results attached:
NNC(=O)CCc1ccc2ccc3ccccc3c2c1 : Not satisfied
O=C(O)CNc1ccc(Cl)c(Cl)c1 : Not satisfied
Nc1ccc2c(c1)C(=O)c1cccc(N)c1C2=O : Not satisfied
CCCCCCCCCCCCCCCCCCOCC(O)COP(=O)(O)OCC1OC(n2cc(F)c(=O)[nH]c2=O)CC1O (configuration not stated) : Not satisfied
CCN(CC)C(=S)N/N=C(/C)c1cccc(/C(C)=N\NC(=S)N(CC)CC)n1 : Not satisfied
CCCCCCCCCCCC1=C(O)C(=O)C=C(O)C1=O : Not satisfied

[ask] Does OCC1OC(OCC(O)C(O)C(O)C(/C=N/Nc2ccccc2)=N/Nc2ccccc2)C(O)C(O)C1O (configuration not stated) have a reported growth inhibition of at least 90%?
[reply] Satisfied

[ask] Does Cc1ccc(S(=O)(=O)Oc2cc(Cl)c(Cl)cc2Cl)cc1 have a reported growth inhibition of at least 90%?
[reply] Not satisfied

[ask] Does O=C(c1ccc(Cl)cc1)C1OC12C(=O)Nc1ccccc12 (configuration not stated) have a reported growth inhibition of at least 90%?
[reply] Satisfied

[ask] Does CC(C)C1=CCC2C(=C1)CCC1C(C)(C(=O)O)CCCC21C (configuration not stated) (tested in a mixture with another compound) have a reported growth inhibition of at least 90%?
[reply] Not satisfied
